Origin of the recorded values: BindingDB's records for patent US10370339

Target: Isocitrate dehydrogenase [NADP] cytoplasmic [R132H] (Homo sapiens, UniProt O75874, R132H)
Sequence (O75874 2-414 R132H limits assumed): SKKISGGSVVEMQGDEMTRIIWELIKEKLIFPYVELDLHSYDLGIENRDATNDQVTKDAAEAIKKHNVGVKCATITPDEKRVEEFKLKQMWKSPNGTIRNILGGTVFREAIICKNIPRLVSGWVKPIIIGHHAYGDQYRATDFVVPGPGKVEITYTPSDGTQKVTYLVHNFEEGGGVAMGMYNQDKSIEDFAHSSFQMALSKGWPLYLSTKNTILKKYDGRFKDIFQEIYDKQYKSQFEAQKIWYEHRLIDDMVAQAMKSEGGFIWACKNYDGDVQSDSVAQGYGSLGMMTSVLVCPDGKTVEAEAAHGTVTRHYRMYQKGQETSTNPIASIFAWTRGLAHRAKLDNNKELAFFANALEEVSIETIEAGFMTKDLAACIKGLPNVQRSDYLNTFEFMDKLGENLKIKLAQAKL
Assay: Biological Assay
Experimental: Mutant IDH1 R132H Biochemical Assay mIDH1 catalyzes the NADPH-dependent reduction of alpha-ketoglutarate (a-KG) to (2R)-2-hydroxyglutarate (2-HG). NADPH consumption was measured by luminescent readout.The biochemical reactions were performed at 32° C. in 384-well plates using a reaction volume of 41 μL and the following assay buffer conditions: 50 mM Tris pH 7.5, 100 mM NaCl, 20 mM MgCl2, 0.05% BSA, 0.01% Brij, 1 μM NADPH, and 250 μM α-KG. […]
Reported Endpoint: pIC50
// pIC50: -log10(molar conc.)

Use the examples below as a reference point.
>>> endpoint_result("CC(C)[C@@H]1CC[C@@H](C)C[C@H]1n1c(Nc2ccc(OC(F)(F)F)cc2)nc2cc(CC(=O)O)ccc21 [US10370339, Example 2-31]")
7.85
>>> endpoint_result("COc1cc2c(cc1CCC(=O)O)nc(Nc1ccc(C(C)C)cc1)n2[C@@H]1C[C@H](C)CC[C@H]1C(C)C [US10370339, Example 2-48]")
7.96

# evaluate next
Input: Report pIC50 for COc1cc2c(cc1C(=O)O)nc(Nc1ccc(OC(C)C)cc1)n2[C@@H]1C[C@H](C)CC[C@H]1C(C)C [US10370339, Example 2-30] please.
Output: 7.82
